System: MS2 coat protein
method-description: apparent KD of MS2 coat protein, switch ON state; designed switch direction (-1 OFF switch, 1 ON switch): -1; higher = weaker reporter binding
measurement-context: FMN input: 0 or 200 uM; Eterna round: R93 (includes R88 designs)
Consider the following sequences; for each one, report its apparent KD of MS2 coat protein.
Answer by giving the amount and then stating its unit.

Can you share its apparent KD of MS2 coat protein? I mean this sequence: CCCAUGUCAGGAUAUCAGUAGUAAAAAAAAAAAAUUACUACUGAGAAGGGACAUGAGGAUCACCCAUGUCCAAA [EX4 316: Super Stable 16]
0.0617 µM

Can you share its apparent KD of MS2 coat protein? I mean this sequence: AAGAAACAUGAGGAUCACCCAUGUCAGGAUAUACAAAAGAAAAGAAAAGAAAGAAGAAGUAGAAGGGACAAAGG [Neitiqerty Siptah]
0.0383 µM

Can you share its apparent KD of MS2 coat protein? I mean this sequence: GAAAAGUGAGGAUAUUCGGAUAGGAAAACGAAAACCUAUCCGAAGAAGGCACAUGAGGAUCACCCAUGUGGAAG [Mat - Exaclusion 4 - Eli mod - D46]
0.0261 µM

====

System: MS2 coat protein
method-description: apparent KD of MS2 coat protein; higher = weaker reporter binding
measurement-context: Eterna round: R107; input ligand: arginine 13.2 mM
Consider the following sequences; for each one, report its apparent KD of MS2 coat protein.
Answer by giving the amount and then stating its unit.

Test system MS2 coat protein; read-out apparent KD of MS2 coat protein; what value for ACAUGAGGAUCACCCAUGUAAAUCCUCGAUACCAGCCAAAGGAGAGGCCCUUGGCAGCGGAAAGGCCGGGUAUAAAUGUCCGGCC ?
71.6 nM

Test system MS2 coat protein; read-out apparent KD of MS2 coat protein; what value for GGAGUCGGCACGGCCGCCACUGCGGUGGUGUGACAUGAGGAUCACCCAUGUUGUCAUGCGGCCCUUAGGACCGGGUGGCGGUUCC [#1 Exclusion - Tryptophan B Attempt #22 (HarryS)] ?
28.4 nM

Test system MS2 coat protein; read-out apparent KD of MS2 coat protein; what value for CUCCUGUGAGCGGCCGCCACUGGAGGCCUCGCGCGACAUGAGGAUCACCCAUGUUGGCCCGGCCUCAGGACCGGGUUCGCGCGAG [Same State - Tryptophan B Attempt #4 (HarryS)] ?
7.89 nM

Test system MS2 coat protein; read-out apparent KD of MS2 coat protein; what value for UGUCGAAACUGAAGGAGCGAGAUGACAACAUUGGGUCUAACAUGAGGAUCACCCAUGUAAUCUCAGGUAGGUCGCAGUGACAAAA [Exclusion Arginine B GF 15] ?
64.5 nM

Test system MS2 coat protein; read-out apparent KD of MS2 coat protein; what value for AACAUGAGGGCGGCCGCCACUCCAUGAACAUGAGGAUCACCCAUGUUGAGGAUCACCCAUGUUGUGAGGACCGGGCCACAUGAGG [Exclusion Tryptophan B 3] ?
31.7 nM

Test system MS2 coat protein; read-out apparent KD of MS2 coat protein; what value for AUAACUGUCAAGGAAGGUGAUCCAGCAGAUACCAGCUAGGAAACUAGCCCUUGGCAGCUGCAACAUGAGGAUCACCCAUGUAAUA [(T)'-(M)'-(T1)-(T2)-(M1)-(M2)_Design9] ?
61 nM

Test system MS2 coat protein; read-out apparent KD of MS2 coat protein; what value for UUAUUUAUAGGCGAUACCAGCCGAAUGGCCGCAAAUCCUAACAUGAGGAUCACCCAUGUCGGCCCUUGGCAGCGCCUAUGGGUUU [XTheo B #27] ?
114 nM

Test system MS2 coat protein; read-out apparent KD of MS2 coat protein; what value for CCGUUAAAAUUCCAUUAUACAAUACCUGAAGGAGCGUAGGAAACUACAGGUAGGUCGCAGAUACAUGAGGAUCACCCAUGUACGG [SSAA #13] ?
14.6 nM

Test system MS2 coat protein; read-out apparent KD of MS2 coat protein; what value for ACGUAAUGCAGAAGGAGCGUCAUUCUCUUACAUGAGGAUCACCCAUGUUACAUGGUUUUAUGACAGGUAGGUCGCUGAAGUACGA [JR_SSArginiB_Sub004] ?
71.4 nM

Test system MS2 coat protein; read-out apparent KD of MS2 coat protein; what value for GGGCGCGUGGACUGGCGUGCUCCGCUCCGUCGAGGACCGGUACGGCCGCCACUCGACAUGAGGAUCACCCAUGUGUGCGCUCGCG [#1 Exclusion - Tryptophan A Attempt #18 (HarryS)] ?
14.5 nM

Test system MS2 coat protein; read-out apparent KD of MS2 coat protein; what value for GCUGCUUUGGGAAGGAGCGCUGCGUUAUCAUGUUGGACAUGAGGAUCACCCAUGUAAAUGUAGCAGGUAGGUCGCUUAGGGCAGC [EAP NP+V+V2 #15] ?
40.8 nM

====

Test system: MS2 coat protein
method-description: apparent KD of MS2 coat protein; higher = weaker reporter binding
measurement-context: Eterna round: R107; input ligand: arginine 13.2 mM
Consider the following sequences; for each one, report its apparent KD of MS2 coat protein.
Give the number; nM is assumed, so skip it.

Test system MS2 coat protein; read-out apparent KD of MS2 coat protein; what value for CACAUGAGGAUCACCCAUGUCUGAACUGAAGGAGCGCUAAACAAGGCAGGUAGGUCGCGGAAUUUUGUGUGCAUAUGCACACGGG [9.R] ?
16.8

Test system MS2 coat protein; read-out apparent KD of MS2 coat protein; what value for UUUGAUAGGACAGAUACCAGCGUGUUGUUGAACAUGAGGAUCACCCAUGUAGUGAUCAAGCGCCCUUGGCAGCUGGUUUGUUAGG [7.M] ?
95.5

Test system MS2 coat protein; read-out apparent KD of MS2 coat protein; what value for ACGACGCAUAGUGAUACCAGUAGAACAUGAGGAUCACCCAUGUCUGUGACGCACAAAUUCUGCCCUUGGCAGCACUAUGCGUCAG [SSTheo B #6] ?
12.6

Test system MS2 coat protein; read-out apparent KD of MS2 coat protein; what value for CGCCACUCGAGUGAUCCUCACGAGUGGCUACGAGGACCGGUACGGCCGCCACUCGAAUUAACAUGAGGAUCACCCAUGUACUCCA [Brourdmod10] ?
17.4

Test system MS2 coat protein; read-out apparent KD of MS2 coat protein; what value for AUGGUCGACGAUCUGCGAAAAGCAGAUCGACGAGGACCGGUACGGCCGCCACUCGUGUUCAUUAAACAUGAGGAUCACCCAUGUA [#15Tryptophan A Same State] ?
41

Test system MS2 coat protein; read-out apparent KD of MS2 coat protein; what value for AGCAGCUCGAAAGAGUUGCACUCAUGUGAAGGAGCGCGCGUUAGCGCAGGUAGGUCGCACAUGAGGAUCACCCAUGUACCUUCUA [MAT - Exclusion Arginine A - Mod of Eli - D15] ?
87.3

Test system MS2 coat protein; read-out apparent KD of MS2 coat protein; what value for AUCCACAGCCGAAGGAGCGCUAUAGGAUGACAUGAGGAUCACCCAUGUGUGUGAUGUGGAUAGCAGGUAGGUCGCGGAGUGGAUU [Exclusion - Arginine B (Freestyle 10)] ?
73

Test system MS2 coat protein; read-out apparent KD of MS2 coat protein; what value for CCUGAUAACUGAAGGAGCGAGAAACCCUACAUGAGGAUCACCCAUGUAUACACGGGAACUUCUCAGGUAGGUCGCAGUUUGUCAG [Adiso] ?
48

Test system MS2 coat protein; read-out apparent KD of MS2 coat protein; what value for AAUUAUUUCUCAAUUAUUUAAUCUUCAGAAGGAGCGUGAUGAUUCACAGGUAGGUCGCUGAUGACAUGAGGAUCACCCAUGUAUU [JR_SSArginiA_Sub003] ?
30.6

Test system MS2 coat protein; read-out apparent KD of MS2 coat protein; what value for GAUAUGAUAAGAAGGAGCGUCGAAAAUGGGUAAACAUGAGGAUCACCCAUGUAAAGGGAACGACAGGUAGGUCGCUUAUUAUAUC [AstromonsSSArgB#19] ?
146

Test system MS2 coat protein; read-out apparent KD of MS2 coat protein; what value for ACAUGAGGAUCACCCAUGUAGCGUAGGGAAGGAGCGGAAUAGAGUCCAGGUAGGUCGCCCAUAUGAUGAUCUCACUUAUUAUCGA [#13 Same State - Arginine A] ?
39.1

Test system MS2 coat protein; read-out apparent KD of MS2 coat protein; what value for AAUCGUAAGGCGGCCGCCACUACACAUGAGGAUCACCCAUGUCUCGCGGGCUUGCGUUGGGAUUGUAGGACCGGGCCAGUAAUAA [Exclusion - Tryptophan B (Freestyle 12)] ?
19.3

====

Test system: MS2 coat protein
method-description: apparent KD of MS2 coat protein; designed switch direction (-1 OFF switch, 1 ON switch): -1; higher = weaker reporter binding
measurement-context: input ligand: FMN 200 uM
reported-metric: apparent KD of MS2 coat protein (µM)
Give the number; µM is assumed, so skip it.

Can you share its apparent KD of MS2 coat protein? I mean this sequence: AGUUGGCGAGGAUAUACAUGAGGAUCACCCAUGUGAAAUUAAAGUGAGUAAAUGAAAAGUAGAAGGCGCUGACA [Mod of Mat 21 - Jieux - Exclusion 3] (Eterna round: R97, puzzle: Exclusion 3)
0.259

Can you share its apparent KD of MS2 coat protein? I mean this sequence: GCACUGCGAGGAUAUACAUGAGGAUCACCCAUGUGUCGGCAGACAUGGUUAAUCUAAGGUAGAAGGCGCGUAAA [JR_Ex3_Sub004] (Eterna round: R97, puzzle: Exclusion 3)
0.0163

Can you share its apparent KD of MS2 coat protein? I mean this sequence: GGAUAUCGAGGAUAUACAUGAGGAUCACCCAUGUUGAAUCCGUGGGAUGGCCGACGAUGUAGAAGGUGACUCAU [Eternabot (Original) Solution 27] (Eterna round: R97, puzzle: Exclusion 3)
0.134
